Test system: all-trans-RA catabolism in MCF-7 cells
Test Summary: Inhibition of induced all-trans-RA catabolism in MCF-7 cells
Format: cell-based, human
Experimental Parameters: Homo sapiens, MCF7; MCF-7 cells preincubated 24 h with 10^-6 M all-trans-RA; 10^-7 M [3H]all-trans-RA as substrate; mean ± s.d., three experiments in duplicate
Measure Name: IC50 (µM)

compound="CC1=C(/C=C/C(C)=C\\C=C\\C(C)=C\\C(=O)O)C(C)(C)CCC1 [9-cis-RA, 9-cis-retinoic acid]" units_label=µM reported=1.89
